Biological target: Thromboxane A2 Synthetase (Equus caballus, UniProt A0A9L0T8T9)
Construct: [1-14C]arachidonic acid substrate, TXB2 by TLC
Sequence (A0A9L0T8T9 2-534): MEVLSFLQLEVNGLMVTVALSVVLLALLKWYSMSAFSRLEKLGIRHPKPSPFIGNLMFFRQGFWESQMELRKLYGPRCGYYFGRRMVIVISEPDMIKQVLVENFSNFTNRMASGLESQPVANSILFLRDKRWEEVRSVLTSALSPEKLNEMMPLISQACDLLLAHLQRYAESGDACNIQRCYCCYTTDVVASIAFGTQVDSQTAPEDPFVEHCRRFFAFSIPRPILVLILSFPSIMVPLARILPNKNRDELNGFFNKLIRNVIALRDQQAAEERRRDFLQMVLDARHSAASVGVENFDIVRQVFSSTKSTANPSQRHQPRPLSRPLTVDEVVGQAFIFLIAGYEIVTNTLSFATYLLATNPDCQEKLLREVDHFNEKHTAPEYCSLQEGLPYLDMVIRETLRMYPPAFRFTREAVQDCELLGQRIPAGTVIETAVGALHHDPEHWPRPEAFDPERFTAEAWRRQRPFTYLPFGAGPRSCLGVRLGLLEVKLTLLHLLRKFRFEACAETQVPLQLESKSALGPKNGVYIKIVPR
Assay: Determination of Thromboxane A2 Synthetase Inhibitory Activity
Type: biochemical
Conditions: lysed platelets from horse PRP; [1-14C]-arachidonic acid; 3 min at 37° C.; Tris buffer pH 7.5; read-out: ED50 (concentration of active compound required to reduce the enzyme activity by 50%) (converted)
Where a name gives a salt, the structure may show the parent alone.
PARAMETER: IC50 (nM)

Solved cases (2 shown):
CCOC(=O)/C=C/c1ccc(Cn2ccnc2)c(Cl)c1 | 1720
O=C(O)/C=C/c1ccc(Cn2ccnc2)c(Cl)c1 [Example 3, hydrochloride] | 167

[P] O=C(O)c1ccc(Cn2ccnc2)c(Cl)c1 [Example 1, hydrochloride]
[Q] O=C(O)C=Cc1ccc(Cn2ccnc2)c(Br)c1 [Example 6, hydrochloride hydrate]
[R] O=C(O)c1ccc(C=CCn2ccnc2)cc1Cl [Example 10, hydrochloride hemihydrate]
[S] O=C(O)CCc1ccc(Cn2ccnc2)c(Cl)c1 [Example 4, hydrochloride]
Write the entries in order, lowest recorded IC50 first. The response must list the labels following the requested ordering.
Q, S, R, P
